Test system: HOP-62 NSCLC
assay_procedure: NCI tumour cell line growth inhibition, 48 h
Respond with Y for TGI values of 30 µM and above, N for values below.

INSERT INTO results (molecule, label_class) VALUES
  ('COC1=CC(c2ccc[nH]2)=N/C1=C\c1[nH]c(C)c(C)c1CCC(=O)OCc1ccccc1', 'N'),
  ('O=C(NCCCc1cn[nH]c(=O)n1)c1cccc2nc3ccccc3nc12', 'Y'),
  ('Cc1ccnc(NC(c2ccccc2)c2ccc3cccnc3c2O)c1 (stereo unspecified)', 'Y'),
  ('COc1ccc(OC)c(-c2cc(=O)c3cc4c(cc3[nH]2)OCO4)c1', 'Y'),
  ('N/C(=N/N=C/c1cccc(F)c1)NO', 'Y'),
  ('COc1cccc2c1C(=O)c1c(O)c3c(c(O)c1C2=O)CC(O)(C(C)=O)CC3O (stereo unspecified)', 'N'),
  ('C=C(C)[C@@H]1CC[C@]2(C(=O)N3CCN(C)CC3)CC[C@]3(C)[C@H](CC[C@@H]4[C@@]5(C)CC[C@H](O)C(C)(C)[C@@H]5CC[C@]43C)[C@@H]12', 'N'),
  ('O=C1C(=O)N(C23CC4CC(CC(C4)C2)C3)C(=S)N1c1ccccc1', 'Y'),
  ('COC(=O)Cc1nn2c(nc1=O)sc1ccc3ccccc3c12', 'Y'),
  ('COc1cc(OC)c(/C=C/C(=O)c2c(O)cc(OC)c(C3CCN(C)CC3)c2OC)c(OC)c1', 'N'),
  ('Cn1cc(-c2ccc3nnc(C(F)(F)c4ccc5ncccc5c4)n3n2)cn1', 'Y'),
  ('CC(=O)N1CCN(CCCCN2c3ccccc3Sc3cc(N=[N+]=[N-])ccc32)CC1', 'N'),
  ('COC(=O)CN(CC1O[C@@H]2OC(C)(C)O[C@@H]2C1NC(C)=O)C(=O)OCc1ccccc1 (stereo partly specified)', 'Y'),
  ('CC(C)(N)C(=O)N[C@@H]1C(=O)N2[C@@H]1SC(C)(C)[C@@H]2C(=O)O', 'Y'),
  ('Cc1sc2nc3n(c(=O)c2c1C)N=C(c1ccccc1)CS3', 'Y'),
  ('C=CCCCC(O)c1ccc(C(O)c2cnc3ccccc3c2)o1 (stereo unspecified)', 'Y'),
  ('COc1cc2nc3n(c(=O)c2cc1OC)CCCCC3', 'Y'),
  ('O=C(Nc1ccc(Cl)cc1)c1cc2ccccc2cc1OP(=O)(O)O', 'N'),
  ('CCOC(=O)CP(=S)(S)c1ccccc1 (stereo unspecified)', 'Y'),
  ('O=c1cc(NNc2cccc(F)c2)[nH]c(=S)[nH]1', 'Y'),
  ('O=C1CCc2ccccc2O1', 'Y'),
  ('O=C1c2c(F)c(F)c(F)c(F)c2SC2=Nc3cccc4cccc(c34)N12', 'N'),
  ('O=C(O)c1ccccc1C1c2ccc(Cl)cc2Oc2cc(Cl)ccc21', 'Y'),
  ('COc1cc(C2c3cc4c(cc3OC(NNc3ccccc3)C2C)OCO4)cc(OC)c1O (stereo unspecified)', 'Y'),
  ('O=c1sc(-c2nc3ccccc3[nH]2)c(/N=C/c2ccccc2)n1-c1ccccc1', 'Y'),
  ('O=C(CC1(O)C(=O)Nc2ccc([N+](=O)[O-])cc21)c1ccc(Br)cc1 (stereo unspecified)', 'Y'),
  ('O=C(O)CCCc1cc2c(s1)-c1cccc3cccc-2c13', 'Y'),
  ('CC(C)OC(=O)c1cccnc1/C=N/O', 'Y'),
  ('O=C1Nc2c(ccc(Cl)c2Cl)/C1=C\c1cc(C(F)(F)F)cc(C(F)(F)F)c1', 'N'),
  ('CCOC(=O)C(NC(=O)c1ccccc1)(Nc1ccc(S(=O)(=O)Nc2ccc(OC)nn2)cc1)C(F)(F)F (stereo unspecified)', 'Y'),
  ('O=C1c2ccccc2C(=O)c2c(NCC3CO3)cccc21 (stereo unspecified)', 'Y'),
  ('Cn1c(=O)oc2cc(C(=S)N3CCCCC3)ccc21', 'Y'),
  ('COc1cc(C(=O)N(C(=O)N2CCCCC2)c2ccccc2)cc(OC)c1OC', 'Y'),
  ('C=CC(=C)CCC(Br)C(C)(C)Cl (stereo unspecified)', 'Y'),
  ('COc1ccc(N2C(=O)C3C=CC(n4[nH]c(=O)n(Cc5ccccc5)c4=O)CC3C2=O)cc1 (stereo unspecified)', 'Y');

---

Test system: BT-549 breast
assay_procedure: NCI tumour cell line growth inhibition, 48 h
metric_name: TGI

INSERT INTO results (molecule, result_value) VALUES
  ('COc1cc2c(cc1OC)-c1[nH]c3ccc([N+](=O)[O-])cc3c1CC(=O)N2', '> 100 µM'),
  ('COc1cc(O)c2c(=O)c(OC)c(-c3ccc(OC)c(OC)c3)oc2c1.[Sn]', '> 100 µM'),
  ('CP(=O)(O)C(N)c1ccccc1 (stereo not drawn)', '> 100 µM');

---

System: UACC-257 melanoma
assay_procedure: NCI tumour cell line growth inhibition, 48 h
metric_name: TGI

INSERT INTO measurements (molecule, metric_name, result_value) VALUES
  ('c1ccc(N2N=NC3C4CC(C5c6ccccc6C45)C32)cc1 (centres undefined)', 'TGI', '76.4 µM'),
  ('CCOC(=O)C1=C(O)c2ccc(OC)cc2C(=O)C1=O', 'TGI', '> 100 µM'),
  ('CC(O)c1ccc(C(O)/C(=N\NC(=O)c2ccncc2)c2nc3ccc([N+](=O)[O-])cc3[nH]c2=O)cc1 (centres undefined)', 'TGI', '> 100 µM'),
  ('COC(=O)CC1NC(=O)C1C(C)(OC)OC (centres undefined)', 'TGI', '> 100 µM'),
  ('COc1cc(/C=C2\CC3C4CCC5=CC(=O)CC[C@]5(C)C4CC[C@]3(C)C2=O)ccc1OCCN1CCCCC1 (some centres undefined)', 'TGI', '18.4 µM'),
  ('NCCN(CCN)/[N+]([O-])=N/O', 'TGI', '> 100 µM'),
  ('O=C1c2ccccc2-c2ccccc2C1(Cl)Cl', 'TGI', '0.476 µM'),
  ('CCOC(=O)Nc1cc(-c2ccc(C)c(NS(C)(=O)=O)c2)nn2c(C)nnc12', 'TGI', '> 100 µM'),
  ('Nc1nc(Cl)nc2c1ncn2C1OC(CO)C(O)C1O (centres undefined)', 'TGI', '> 100 µM');

---

// reported TGI per item
Test system: OVCAR-3 ovarian
assay_procedure: NCI tumour cell line growth inhibition, 48 h
metric_name: TGI

INSERT INTO assay_data (line_notation, result_value) VALUES
  ('COc1c(C)c(C/C=C(\C)CCCCO)c(OC)c2ccccc12', '> 100 µM'),
  ('Brc1ccc(C[N+]23CN4CN(CN(C4)C2)C3)cc1', '> 100 µM'),
  ('COc1ccc(C2NC3=C(CCCC3)N2)cc1', '> 100 µM');

---

Consider the following compounds and their measured TGI readings.
Tested on: RPMI-8226 leukemia
assay_procedure: NCI tumour cell line growth inhibition, 48 h
metric_name: TGI

INSERT INTO measurements (compound, target_desc, result_value) VALUES
  ('Nc1nc(-c2ccc3ccccc3c2)cc(-c2cc(-c3ccc4ccccc4c3)nc(N)n2)n1', 'RPMI-8226 leukemia', '> 100 µM'),
  ('COc1cc2nc3n(c(=O)c2cc1OC)CCCCC3', 'RPMI-8226 leukemia', '> 100 µM'),
  ('O=C(O)C1C2CCC(O2)C1C(=O)NCc1cccnc1 (stereo not drawn)', 'RPMI-8226 leukemia', '> 100 µM');

---

Tested on: MOLT-4 leukemia
assay_procedure: NCI tumour cell line growth inhibition, 48 h
Parameter TGI: see the listing below.
metric_name: TGI

INSERT INTO results (molecule, target_desc, result_value) VALUES
  ('O=c1sc(-c2nc3ccccc3[nH]2)c(/N=C/c2ccccc2)n1-c1ccccc1', 'MOLT-4 leukemia', '> 100 µM'),
  ('Cc1cc(C)c(C(=O)/C(=C/c2ccccc2)c2ccccc2)c(C)c1', 'MOLT-4 leukemia', '> 100 µM'),
  ('COc1cc(CC(=O)c2cc3c(cc2-c2ccccc2)OCO3)cc(OC)c1OC', 'MOLT-4 leukemia', '> 100 µM'),
  ('Brc1ccc(C[N+]23CN4CN(CN(C4)C2)C3)cc1', 'MOLT-4 leukemia', '69 µM'),
  ('CCC1OC2C(CC=C(C)C)=C3OC(C)(O)C(C)(CC)C(=O)C3=C3OC(=O)C=C1C32 (centres undefined)', 'MOLT-4 leukemia', '> 100 µM'),
  ('O=C(c1cccnc1)N1N=C(c2ccc3c(c2)OCO3)CC1(O)c1cc(F)c(Cl)cc1Cl (centres undefined)', 'MOLT-4 leukemia', '> 100 µM'),
  ('Cc1ccc(S(=O)(=O)OC2CSSCC2OS(=O)(=O)c2ccc(C)cc2)cc1 (centres undefined)', 'MOLT-4 leukemia', '7.61 µM'),
  ('Cc1cc(Cl)ccc1Nc1nc2c(s1)C(=O)c1ccccc1C2=O', 'MOLT-4 leukemia', '> 25.4 µM'),
  ('CON(C(=O)OC(C)(C)C)c1ccccc1', 'MOLT-4 leukemia', '> 100 µM'),
  ('COC1=CC(c2ccc[nH]2)=N/C1=C\c1[nH]c(C)c(C)c1CCC(=O)OCc1ccccc1', 'MOLT-4 leukemia', '1.44 µM'),
  ('COc1cc(OC)c(/C=C/C(=O)c2c(O)cc(OC)c(C3CCN(C)CC3)c2OC)c(OC)c1', 'MOLT-4 leukemia', '3.61 µM'),
  ('O=C1C(c2c(O)[nH]c3ccc(I)cc23)=Nc2ccccc21', 'MOLT-4 leukemia', '> 100 µM'),
  ('COc1ccc(N2C(=O)C(=O)C3(CCCCC3)C2=O)c(OC)c1OC', 'MOLT-4 leukemia', '> 100 µM'),
  ('Cc1cc2nc3c4cc([N+](=O)[O-])ccc4n(CCN(C)C)c3nc2cc1C', 'MOLT-4 leukemia', '8.68 µM');
